System: NCI-H460, human non-small-cell lung cancer cells
Assay: Proliferation assay, H460
Format: cell-based
Details: NCI-H460, 96 h, 4 days, crystal violet
measured.quantity: pIC50
Scale for pIC50: -log10 of concentration given in mol/L; no unit attached.

pIC50 for C[C@@H](O)[C@@H](C)Oc1nc(Nc2ccc(N=S(C)(C)=O)cc2)ncc1Br ?
6.15

Quick one: pIC50 for C[C@@H](O)[C@@H](C)Nc1nc(Nc2ccc(N=S(C)(C)=O)cc2)ncc1Br ?
6.10

Consider the molecule C[C@@H](Nc1nc(Nc2ccc(N=S(C)(C)=O)cc2)ncc1Br)C(C)(C)O and give its measured pIC50.
6.30

Could you share which pIC50 value was measured for CS(C)(=O)=Nc1ccc(Nc2ncc(Br)c(Nc3ccccc3)n2)cc1 ?
6.40
